Reference source: paper PMC10364322

- Tested on: hiPSC-CMs (iCell-Cardiomyocytes^2)
- Measurement Parameters: 1 µM, 2h
Quantity Kind: BR (beating rate), % change from baseline (%)
Answers are plain numbers, in %.

Compound	Number
COc1cc2c(Nc3ccc(Br)cc3F)ncnc2cc1OCC1CCN(C)CC1	-28

Record BR (beating rate), % change from baseline for all entries; do not skip any.
1. COc1cccc2c1C(=O)c1c(O)c3c(c(O)c1C2=O)C[C@@](O)(C(=O)CO)C[C@@H]3O[C@H]1C[C@H](N)[C@H](O)[C@H](C)O1
2. CC1(C)S[C@@H]2[C@H](NC(=O)[C@H](N)c3ccc(O)cc3)C(=O)N2[C@H]1C(=O)O
3. CCN(CC)CCNC(=O)c1c(C)[nH]c(/C=C2\C(=O)Nc3ccc(F)cc32)c1C
4. C[C@H](CS)C(=O)N1CCC[C@H]1C(=O)O
5. O=C(O)COCCN1CCN(C(c2ccccc2)c2ccc(Cl)cc2)CC1 (stereo not drawn)
6. N=C(N)c1ccc(OCCCCCOc2ccc(C(=N)N)cc2)cc1
7. CC(C)(Sc1cc(C(C)(C)C)c(O)c(C(C)(C)C)c1)Sc1cc(C(C)(C)C)c(O)c(C(C)(C)C)c1
8. COc1nc(N)nc2c1ncn2[C@@H]1O[C@H](COP(=O)(N[C@@H](C)C(=O)OCC(C)(C)C)Oc2cccc3ccccc23)[C@@H](O)[C@@]1(C)O (stereo partly drawn)

Output line:
1: 3; 2: 8; 3: -49; 4: 4; 5: 3; 6: -3; 7: 0; 8: 6

* * *

- Tested on: hiPSC-CMs (iCell-Cardiomyocytes^2)
- Measurement Parameters: 1 µM, 48h
Quantity Kind: EAD, number of observations/total well numbers

The following molecules have reported results that may help.
Molecule	Measured Target	Result
C#Cc1cccc(Nc2ncnc3cc(OCCOC)c(OCCOC)cc23)c1	hiPSC-CMs (iCell-Cardiomyocytes^2)	0/5
COc1cc2c(Nc3ccc(Br)cc3F)ncnc2cc1OCC1CCN(C)CC1	hiPSC-CMs (iCell-Cardiomyocytes^2)	2/5
COc1cccc2c1C(=O)c1c(O)c3c(c(O)c1C2=O)C[C@@](O)(C(=O)CO)C[C@@H]3O[C@H]1C[C@H](N)[C@H](O)[C@H](C)O1	hiPSC-CMs (iCell-Cardiomyocytes^2)	0/5
COc1nc(N)nc2c1ncn2[C@@H]1O[C@H](COP(=O)(N[C@@H](C)C(=O)OCC(C)(C)C)Oc2cccc3ccccc23)[C@@H](O)[C@@]1(C)O (stereo partly shown)	hiPSC-CMs (iCell-Cardiomyocytes^2)	0/5
CC(C)(Sc1cc(C(C)(C)C)c(O)c(C(C)(C)C)c1)Sc1cc(C(C)(C)C)c(O)c(C(C)(C)C)c1	hiPSC-CMs (iCell-Cardiomyocytes^2)	0/4

Give me EAD, number of observations/total well numbers for each of these molecules, listed below.
1. Cc1cn(-c2cc(NC(=O)c3ccc(C)c(Nc4nccc(-c5cccnc5)n4)c3)cc(C(F)(F)F)c2)cn1
2. N=C(N)c1ccc(OCCCCCOc2ccc(C(=N)N)cc2)cc1

Output line:
1/5
0/6

* * *

Exercise: state measured Imp (impedance), % change from baseline for each of the compounds provided.
- Test system: hiPSC-CMs (iCell-Cardiomyocytes^2)
- Experiment: MEA impedance (cytotoxicity readout) in hiPSC-CMs
- Measurement Parameters: 3 µM, 72h
One number for each entry, in %.

Some entries whose results are on file:
> print(dat)
                                   compound  unit.of.measure  number
1  O=C(O)COCCN1CCN(C(c2ccccc2)c2ccc(Cl)cc2)CC1 (stereo not drawn)                %      -8
2  C#Cc1cccc(Nc2ncnc3cc(OCCOC)c(OCCOC)cc23)c1                %      -2
3          C[C@H](CS)C(=O)N1CCC[C@H]1C(=O)O                %       1
4  CC1(C)S[C@@H]2[C@H](NC(=O)[C@H](N)c3ccc(O)cc3)C(=O)N2[C@H]1C(=O)O                %       1
5  COc1cccc2c1C(=O)c1c(O)c3c(c(O)c1C2=O)C[C@@](O)(C(=O)CO)C[C@@H]3O[C@H]1C[C@H](N)[C@H](O)[C@H](C)O1                %     -87

// sample `CC(=O)Oc1ccccc1C(=O)O` , its Imp (impedance), % change from baseline was -2
